assay: Solubility of free base hydrate and salts versus pH (Table 24); assay type: physicochemical; details: aqueous buffer, thermodynamic from solid; pH 1.65, RT; read-out: Solubility
reportedEndpoint: Solubility

IN: # get_value(readout='Solubility', item= COc1cc(-c2cccc3cc([C@H](C)Nc4nc(N)ncc4C#N)n(-c4ccccc4)c(=O)c23)ccn1 )
OUT: > 12 mg/mL

----------
assay: Solubility of free base hydrate and salts versus pH (Table 24); format: physicochemical; conditions: aqueous buffer, thermodynamic from solid; citrate buffer, pH 2.5, at 37° C.; read-out: Solubility
reportedEndpoint: Solubility

IN: Quick one: Solubility for COc1cc(-c2cccc3cc([C@H](C)Nc4nc(N)ncc4C#N)n(-c4ccccc4)c(=O)c23)ccn1 ?
OUT: > 12 mg/mL

----------
assay: Solubility of free base hydrate and salts versus pH (Table 24); format: physicochemical; details: Simulated Gastric Fluid, thermodynamic from solid; read-out: Solubility
reportedEndpoint: Solubility

IN: Recorded Solubility for COc1cc(-c2cccc3cc([C@H](C)Nc4nc(N)ncc4C#N)n(-c4ccccc4)c(=O)c23)ccn1 , please?
OUT: > 17 mg/mL

----------
experiment: Solubility of free base hydrate and salts versus pH (Table 24); assay type: physicochemical; settings: aqueous buffer, thermodynamic from solid; pH 2.5, 37° C.; read-out: Solubility
reportedEndpoint: Solubility

IN: Which Solubility reading was recorded for the compound COc1cc(-c2cccc3cc([C@H](C)Nc4nc(N)ncc4C#N)n(-c4ccccc4)c(=O)c23)ccn1 ?
OUT: > 12 mg/mL

----------
assay: Solubility of free base hydrate and salts versus pH (Table 24); format: physicochemical; details: aqueous buffer, thermodynamic from solid; citrate buffer, pH 2.5, at RT; read-out: Solubility
reportedEndpoint: Solubility

IN: Which Solubility reading was recorded for the compound COc1cc(-c2cccc3cc([C@H](C)Nc4nc(N)ncc4C#N)n(-c4ccccc4)c(=O)c23)ccn1 ?
OUT: > 12 mg/mL

----------
assay: Solubility of free base hydrate and salts versus pH (Table 24); assay type: physicochemical; settings: thermodynamic from solid; Water (pH 1.16); read-out: Solubility
reportedEndpoint: Solubility

IN: Item COc1cc(-c2cccc3cc([C@H](C)Nc4nc(N)ncc4C#N)n(-c4ccccc4)c(=O)c23)ccn1 has what recorded Solubility?
OUT: > 60 mg/mL

----------
assay: Solubility of free base hydrate and salts versus pH (Table 24); format: physicochemical; conditions: Simulated Intestinal Fluid, fassgf or other biorelevant, thermodynamic from solid; read-out: Solubility
reportedEndpoint: Solubility (µg/mL)
Report as a plain number; the unit µg/mL is understood.

IN: Would you kindly share the measured Solubility for COc1cc(-c2cccc3cc([C@H](C)Nc4nc(N)ncc4C#N)n(-c4ccccc4)c(=O)c23)ccn1 ?
OUT: 40

----------
experiment: Solubility of free base hydrate and salts versus pH (Table 24); assay type: physicochemical; conditions: aqueous buffer, thermodynamic from solid; pH 3.0, 37° C.; read-out: Solubility
reportedEndpoint: Solubility
Please state the value followed by its unit.

IN: Query (compound): COc1cc(-c2cccc3cc([C@H](C)Nc4nc(N)ncc4C#N)n(-c4ccccc4)c(=O)c23)ccn1 ; field requested: Solubility
OUT: 3450 µg/mL

----------
experiment: Solubility of free base hydrate and salts versus pH (Table 24); format: physicochemical; conditions: aqueous buffer, thermodynamic from solid; pH 3.8, RT; read-out: Solubility
reportedEndpoint: Solubility (µg/mL)
Answer with a number only, understood to be in µg/mL.

IN: Returns the measured Solubility for the input molecule. Input: COc1cc(-c2cccc3cc([C@H](C)Nc4nc(N)ncc4C#N)n(-c4ccccc4)c(=O)c23)ccn1
OUT: 290

----------
assay: Solubility of free base hydrate and salts versus pH (Table 24); type: physicochemical; settings: aqueous buffer, thermodynamic from solid; pH 3.8, 37° C.; read-out: Solubility
reportedEndpoint: Solubility
Put down the number, then write its unit next to it.

IN: Looking for the measured Solubility of COc1cc(-c2cccc3cc([C@H](C)Nc4nc(N)ncc4C#N)n(-c4ccccc4)c(=O)c23)ccn1 , can you help?
OUT: 280 µg/mL

----------
reportedEndpoint: Kd
Write the figure, then the unit, nothing else.

IN: Recorded Kd for COc1cc(-c2cccc3cc([C@H](C)Nc4nc(N)ncc4C#N)n(-c4ccccc4)c(=O)c23)ccn1 [Compound 1] with PI3K-α (Homo sapiens, UniProt P42336), please?
OUT: 9.76 nM

----------
assay: pKa of the basic nitrogen atoms; type: physicochemical; conditions: at least two basic nitrogen atoms
reportedEndpoint: pKa

IN: Tell me the measured pKa of COc1cc(-c2cccc3cc([C@H](C)Nc4nc(N)ncc4C#N)n(-c4ccccc4)c(=O)c23)ccn1 , please.
OUT: ~3.5

----------
reportedEndpoint: Kd (nM)
Number only, in nM; omit the unit.

IN: // map COc1cc(-c2cccc3cc([C@H](C)Nc4nc(N)ncc4C#N)n(-c4ccccc4)c(=O)c23)ccn1 to recorded Kd (system: PI3K-γ (Homo sapiens, UniProt P48736))
Sequence (P48736 whole entry): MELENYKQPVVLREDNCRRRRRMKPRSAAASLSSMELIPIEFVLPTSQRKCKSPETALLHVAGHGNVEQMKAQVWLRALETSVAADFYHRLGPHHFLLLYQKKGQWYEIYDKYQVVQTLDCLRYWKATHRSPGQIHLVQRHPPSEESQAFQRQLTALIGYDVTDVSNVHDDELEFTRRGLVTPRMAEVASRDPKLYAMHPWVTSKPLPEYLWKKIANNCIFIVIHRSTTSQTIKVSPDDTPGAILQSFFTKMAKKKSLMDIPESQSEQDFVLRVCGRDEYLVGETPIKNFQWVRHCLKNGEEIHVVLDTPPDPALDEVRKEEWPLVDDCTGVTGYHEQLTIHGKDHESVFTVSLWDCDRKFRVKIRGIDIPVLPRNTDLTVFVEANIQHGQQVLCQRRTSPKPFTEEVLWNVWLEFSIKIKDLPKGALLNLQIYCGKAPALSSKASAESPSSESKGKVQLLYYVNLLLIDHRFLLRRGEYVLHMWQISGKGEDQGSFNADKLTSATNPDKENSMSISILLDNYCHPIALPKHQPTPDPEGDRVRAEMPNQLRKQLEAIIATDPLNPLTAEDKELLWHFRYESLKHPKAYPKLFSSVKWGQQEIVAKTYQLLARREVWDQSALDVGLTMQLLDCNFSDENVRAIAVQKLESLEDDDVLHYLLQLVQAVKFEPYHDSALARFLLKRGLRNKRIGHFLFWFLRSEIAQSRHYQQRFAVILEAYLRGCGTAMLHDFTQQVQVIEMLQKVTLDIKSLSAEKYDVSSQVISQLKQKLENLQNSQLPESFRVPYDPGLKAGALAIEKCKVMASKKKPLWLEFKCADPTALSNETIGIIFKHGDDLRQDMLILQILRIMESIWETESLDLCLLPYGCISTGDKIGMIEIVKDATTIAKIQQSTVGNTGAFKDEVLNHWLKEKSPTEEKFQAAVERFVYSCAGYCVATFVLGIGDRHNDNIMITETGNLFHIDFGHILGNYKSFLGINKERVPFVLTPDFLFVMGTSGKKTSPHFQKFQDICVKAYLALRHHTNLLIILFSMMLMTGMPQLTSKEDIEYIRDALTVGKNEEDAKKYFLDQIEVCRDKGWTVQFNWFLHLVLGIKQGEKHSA
OUT: 0.114

----------
test: Solubility of free base hydrate and salts versus pH (Table 24); assay type: physicochemical; details: aqueous buffer, thermodynamic from solid; pH 1.9, 37° C.; read-out: Solubility
reportedEndpoint: Solubility

IN: Quick one: Solubility of COc1cc(-c2cccc3cc([C@H](C)Nc4nc(N)ncc4C#N)n(-c4ccccc4)c(=O)c23)ccn1 ?
OUT: > 12 mg/mL

----------
reportedEndpoint: pKd
# pKd = -log10(concentration in molar units)

IN: Lab note: need pKd for COc1cc(-c2cccc3cc([C@H](C)Nc4nc(N)ncc4C#N)n(-c4ccccc4)c(=O)c23)ccn1 on PI3K-δ (Homo sapiens), anyone have it?
OUT: 10.51

Taken from patent US20160024051A1.
